- Test system: Enterococcus faecium
- assay.protocol: microbe, parasite or virus in culture
- setup.conditions: NCTC 7171
- Description: Antibacterial activity against Enterococcus faecium NCTC 7171 assessed as bacterial growth inhibition after 16-20 hrs by broth microdilution method
Property: MIC; scope: individual molecules

molecule | MIC
CC1=C(C(N)=O)C(c2ccc(C(C)C)cc2)n2nc(SCCNC(=O)OCc3ccccc3)nc2N1 (stereo not given) | > 128 µg/mL
CSc1nc2n(n1)C(c1ccc(N(C)C)cc1)C(C(N)=O)=C(C)N2 (stereo not given) | > 128 µg/mL
CNC(=O)C1=C(C)Nc2nc(SCc3ccccc3)nn2C1c1ccc(N(C)C)cc1 (stereo not given) | 8 µg/mL
COc1cc(C2C(C(=O)Nc3ccc(C)cc3C)=C(C)Nc3nc(SCc4ccccc4)nn32)ccc1O (stereo not given) | 16 µg/mL
CC1=C(C(N)=O)C(c2ccc(C(=O)O)cc2)n2nc(SCCNC(=O)OCc3ccccc3)nc2N1 (stereo not given) | > 128 µg/mL
CC1=C(C(N)=O)C(c2cccs2)n2ncnc2N1 (stereo not given) | > 128 µg/mL
CC1=C(C(N)=O)C(c2ccsc2)n2nc(SCc3ccccc3)nc2N1 (stereo not given) | > 128 µg/mL
CC1=C(C(N)=O)C(c2cccs2)n2nc(SCc3ccccc3)nc2N1 (stereo not given) | > 128 µg/mL
CCc1ccc(C2C(C(=O)Nc3ccccc3C)=C(C)Nc3nc(SCc4cccc(OC)c4)nn32)cc1 (stereo not given) | > 128 µg/mL
CCN(CC)CCOc1ccc(C2C(C(N)=O)=C(C)Nc3nc(SCc4ccccc4)nn32)cc1 (stereo not given) | > 128 µg/mL

---

Property: MIC; scope: individual molecules
- Tested on: Enterococcus faecium
- assay.protocol: microbe, parasite or virus in culture
- setup.conditions: NCTC 7171
value.kind: MIC

molecule | recorded.result
CSc1ccc(CSc2nc3n(n2)C(c2ccc(N(C)C)cc2)C(C(N)=O)=C(C)N3)cc1 (stereo not given) | > 128 µg/mL
CC1=C(C(=O)Nc2ccc(C)cc2C)C(c2ccc(Cl)cc2)n2nc(C(=O)OC(C)C)nc2N1 (stereo not given) | 16 µg/mL
CC1=C(C(N)=O)C(c2ccc(SC(F)(F)F)cc2)n2nc(SCc3ccccc3)nc2N1 (stereo not given) | > 128 µg/mL
CN(C)c1ccc(C2C3=C(CCCC3=O)Nc3nc(SCc4ccccc4)nn32)cc1 (stereo not given) | > 128 µg/mL
CCOc1ccccc1C1C2=C(CCCC2=O)Nc2nc(SCc3ccc(C(=O)O)cc3)nn21 (stereo not given) | > 128 µg/mL

---

- Test system: Enterococcus faecium
- assay.protocol: microbe, parasite or virus in culture
- setup.conditions: NCTC 7171

compound | MIC
COc1ccc(C2C(C(N)=O)=C(C)Nc3nc(SCc4ccccc4)nn32)cc1 (stereo not given) | > 128 µg/mL
CC1=C(C(N)=O)C(c2ccc(N(C)C)cc2)n2nc(SCc3ccc(C(=O)O)cc3)nc2N1 (stereo not given) | > 128 µg/mL
COC(=O)c1nc2n(n1)C(c1ccc(N(C)C)cc1)C(C(N)=O)=C(C)N2 (stereo not given) | > 128 µg/mL
CC1=C(C(=O)Nc2ccccc2)C(c2ccc(C)cc2)n2nc(SCc3ccccc3C)nc2N1 (stereo not given) | > 128 µg/mL
CC1=C(C(N)=O)C(c2cccc(C(F)(F)F)c2)n2nc(SCc3ccccc3)nc2N1 (stereo not given) | 16 µg/mL

---

- System: Enterococcus faecium
- assay.protocol: microbe, parasite or virus in culture
- setup.conditions: NCTC 7171
value.kind: MIC

compound | value.kind | recorded.result
CCc1ccc(C2C(C(=O)Nc3ccccc3)=C(C)Nc3nc(SCc4cccc(OC)c4)nn32)cc1 (centres undefined) | MIC | > 128 µg/mL
CCSc1ccc(C2C(C(N)=O)=C(C)Nc3nc(SCc4ccccc4)nn32)cc1 (centres undefined) | MIC | 4 µg/mL
COc1ccc(C2C3=C(CCCC3=O)Nc3nc(SCc4ccc(C(=O)O)cc4)nn32)cc1 (centres undefined) | MIC | > 128 µg/mL
CCN(CC)c1ccc(C2C(C(N)=O)=C(C)Nc3nc(SCc4ccccc4)nn32)cc1 (centres undefined) | MIC | 8 µg/mL
CC1=C(C(=O)Nc2ccc(C)cc2C)C(c2ccc(F)cc2)n2nc(SCc3cccc(C)c3)nc2N1 (centres undefined) | MIC | > 128 µg/mL
CC1=C(C(=O)Nc2ccccc2)C(c2ccc(N(C)C)cc2)n2nc(SCc3ccccc3)nc2N1 (centres undefined) | MIC | 8 µg/mL
CCc1ccc(C2C(C(=O)Nc3ccccc3OC)=C(C)Nc3nc(SCc4ccccc4)nn32)cc1 (centres undefined) | MIC | > 128 µg/mL
CC1=C(C(N)=O)C(c2ccc(C(F)(F)F)cc2)n2nc(SCc3ccccc3)nc2N1 (centres undefined) | MIC | 8 µg/mL
CCOC(=O)C1=C(C)Nc2nc(SCc3ccc(C(=O)O)cc3)nn2C1c1cccs1 (centres undefined) | MIC | > 128 µg/mL
CC1=C(C(N)=O)C(c2ccc(OC(C)C)cc2)n2nc(SCc3ccccc3)nc2N1 (centres undefined) | MIC | 4 µg/mL
CC1=C(C(N)=O)C(c2ccc([N+](=O)[O-])cc2)n2nc(SCc3ccccc3)nc2N1 (centres undefined) | MIC | 64 µg/mL
CCOC(=O)CSc1nc2n(n1)C(c1ccc(N(C)C)cc1)C(C(N)=O)=C(C)N2 (centres undefined) | MIC | > 128 µg/mL
CC1=C(C(N)=O)C(c2ncc[nH]2)n2nc(SCc3ccccc3)nc2N1 (centres undefined) | MIC | 32 µg/mL
CC1=C(C(N)=O)C(c2ccc(Cl)cc2)n2nc(SCc3ccccc3)nc2N1 (centres undefined) | MIC | > 128 µg/mL
CC1=C(C(N)=O)C(c2ccc(O)cc2)n2nc(SCc3ccccc3)nc2N1 (centres undefined) | MIC | > 128 µg/mL
CSc1ccc(C2C(C(N)=O)=C(C)Nc3nc(SCc4ccccc4)nn32)cc1 (centres undefined) | MIC | > 128 µg/mL
CC1=C(C(N)=O)C(c2ccccc2C(F)(F)F)n2nc(SCc3ccccc3)nc2N1 (centres undefined) | MIC | > 128 µg/mL
COc1ccc(C2C(C(N)=O)=C(C)Nc3nc(SCc4ccccc4)nn32)cc1OC (centres undefined) | MIC | > 128 µg/mL
O=C1CCCC2=C1C(c1ccc(Cl)cc1)n1nc(SCc3cccc4ccccc34)nc1N2 (centres undefined) | MIC | > 128 µg/mL

---

Property: CLint scaled at 10 µM; scope: individual compounds
- assay.protocol: Apparent intrinsic clearance in human liver S9 at 10 uM after 60 mins by UPLC analysis
- Type: ADME, subcellular, Liver S9 fraction
- setup.conditions: read-out: CLH(app)
value.kind: CLint scaled at 10 µM

compound | value.kind | recorded.result
CC1=C(C(N)=O)C(c2ccc(N(C)C)cc2)n2nc(SCc3ccc(C#N)cc3)nc2N1 (stereo unspecified) | CLint scaled at 10 µM | < 10.4 mL/min/kg
CC1=C(C(N)=O)C(c2ccc(OC(C)C)cc2)n2nc(SCc3ccccc3)nc2N1 (stereo unspecified) | CLint scaled at 10 µM | 10.9 mL/min/kg
CC1=C(C(N)=O)C(c2ccc(N(C)C)cc2)n2nc(SCc3ccccc3)nc2N1 (stereo unspecified) | CLint scaled at 10 µM | < 10.4 mL/min/kg
CCSc1ccc(C2C(C(N)=O)=C(C)Nc3nc(SCc4ccccc4)nn32)cc1 (stereo unspecified) | CLint scaled at 10 µM | < 10.4 mL/min/kg
CC1=C(C(N)=O)C(c2ccc(N(C)C)cc2)n2nc(SCc3ccc([N+](=O)[O-])cc3)nc2N1 (stereo unspecified) | CLint scaled at 10 µM | < 10.4 mL/min/kg
CC1=C(C(N)=O)C(c2ccc(C(C)C)cc2)n2nc(SCc3ccccc3)nc2N1 (stereo unspecified) | CLint scaled at 10 µM | 11.1 mL/min/kg

---

- assay.protocol: Induction of hemolysis in RBC (unknown origin) at 64 ug/ml
- setup.conditions: erythrocytes

molecule | operator | Activity [%]
CC1=C(C(N)=O)C(c2ccc(N(C)C)cc2)n2nc(SCc3ccccc3)nc2N1 (stereo unspecified) | = | 2
CC1=C(C(N)=O)C(c2ccc(C(C)C)cc2)n2nc(SCc3ccccc3)nc2N1 (stereo unspecified) | = | 22
CC1=C(C(N)=O)C(c2ccc(N(C)C)cc2)n2nc(SCc3ccc([N+](=O)[O-])cc3)nc2N1 (stereo unspecified) | = | 23
CC1=C(C(N)=O)C(c2ccc(OC(C)C)cc2)n2nc(SCc3ccccc3)nc2N1 (stereo unspecified) | < | 1
CCSc1ccc(C2C(C(N)=O)=C(C)Nc3nc(SCc4ccccc4)nn32)cc1 (stereo unspecified) | = | 46
CC1=C(C(N)=O)C(c2ccc(N(C)C)cc2)n2nc(SCc3ccc(C#N)cc3)nc2N1 (stereo unspecified) | = | 1

---

- Test system: Liver
- assay.protocol: Half life in human liver S9 at 10 uM after 60 mins by UPLC analysis
- Format: ADME, subcellular, Liver S9 fraction
- setup.conditions: s9, 1 h

compound | system.under.test | t1/2
CC1=C(C(N)=O)C(c2ccc(N(C)C)cc2)n2nc(SCc3ccc([N+](=O)[O-])cc3)nc2N1 (stereo unspecified) | Liver | > 1 h
CC1=C(C(N)=O)C(c2ccc(N(C)C)cc2)n2nc(SCc3ccc(C#N)cc3)nc2N1 (stereo unspecified) | Liver | > 1 h
CC1=C(C(N)=O)C(c2ccc(C(C)C)cc2)n2nc(SCc3ccccc3)nc2N1 (stereo unspecified) | Liver | 0.933 h
CC1=C(C(N)=O)C(c2ccc(OC(C)C)cc2)n2nc(SCc3ccccc3)nc2N1 (stereo unspecified) | Liver | 0.95 h
CCSc1ccc(C2C(C(N)=O)=C(C)Nc3nc(SCc4ccccc4)nn32)cc1 (stereo unspecified) | Liver | > 1 h
CC1=C(C(N)=O)C(c2ccc(N(C)C)cc2)n2nc(SCc3ccccc3)nc2N1 (stereo unspecified) | Liver | > 1 h
